- System: SUDV (glycoprotein, VSV pseudotype)
- Method Description: microbe, parasite or virus in culture
- Type: cell-based, Sudan ebolavirus
- Experimental Conditions: Vesicular stomatitis virus, Vero, 24 h, read-out: EC50 Pseudotype Assays SUDV
Metric Name: EC50 (nM)
Field format: number, assumed nM, no unit text.

Notebook: C[C@@]12CC3CC(C(=O)N4CC5(CC(N)C5)C4)(C1)C[C@](c1ccccc1)(C3)C2 [Example C11] , EC50 read as 960

So for CCC12CC3CC(CN[C@H]4CC[C@H](N)CC4)(C1)CC(c1ccccc1)(C3)C2 (stereo partly drawn) [Example A66] , the logged EC50 turned out to be 490

# EC50 (compound: CCC12CC3CC(CNC4CCNCC4)(C1)CC(c1ccccc1)(C3)C2 (stereo not drawn) [Example A62] ) is 540

From: patent US11548893B2
